system: Escherichia coli TOP10; test: shrunken log2 fold change of peptide-encoding DNA abundance (4.5 h post-induction vs induction); higher = less antimicrobial activity (less host growth inhibition); settings: time post-induction: 4.5 h; library: site-saturation at positions 5, 18, 19, 20;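 also: peptides expressed intracellularly from a pBAD plasmid library in pooled LB shake-flask culture, induced with 0.3% L-arabinose, DNA abundance read by NGS, three biological replicates, DESeq2 with apeglm shrinkage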
Endpoint name: shrunken log2 fold change

Report shrunken log2 fold change on Escherichia coli TOP10 for this entry: RRIRERPPRLPRPRPRPHPFPRP
-0.235

Report shrunken log2 fold change on Escherichia coli TOP10 for this entry: RRIRGRPPRLPRPRPRPVRIPRP
0.536

Report shrunken log2 fold change on Escherichia coli TOP10 for this entry: RRIRGRPPRLPRPRPRPCQRPRP
0.014

Report shrunken log2 fold change on Escherichia coli TOP10 for this entry: RRIRDRPPRLPRPRPRPAHVPRP
-0.0599

Report shrunken log2 fold change on Escherichia coli TOP10 for this entry: RRIRNRPPRLPRPRPRPWWRPRP
-0.0647

Report shrunken log2 fold change on Escherichia coli TOP10 for this entry: RRIRPRPPRLPRPRPRPTEVPRP
-0.342

Report shrunken log2 fold change on Escherichia coli TOP10 for this entry: RRIRGRPPRLPRPRPRPLQGPRP
0.226

Report shrunken log2 fold change on Escherichia coli TOP10 for this entry: RRIRCRPPRLPRPRPRPSHPPRP
-0.0807

Report shrunken log2 fold change on Escherichia coli TOP10 for this entry: RRIRGRPPRLPRPRPRPNTPPRP
0.237

Report shrunken log2 fold change on Escherichia coli TOP10 for this entry: RRIRERPPRLPRPRPRPLQIPRP
-0.0796

Report shrunken log2 fold change on Escherichia coli TOP10 for this entry: RRIRVRPPRLPRPRPRPCEFPRP
-0.242

Report shrunken log2 fold change on Escherichia coli TOP10 for this entry: RRIRVRPPRLPRPRPRPMHRPRP
-0.0728

Report shrunken log2 fold change on Escherichia coli TOP10 for this entry: RRIRRRPPRLPRPRPRPHSHPRP
-0.0882

Report shrunken log2 fold change on Escherichia coli TOP10 for this entry: RRIRMRPPRLPRPRPRPREHPRP
0.402

Report shrunken log2 fold change on Escherichia coli TOP10 for this entry: RRIRHRPPRLPRPRPRPNTEPRP
-0.038

Report shrunken log2 fold change on Escherichia coli TOP10 for this entry: RRIRARPPRLPRPRPRPPYSPRP
-0.0108

Report shrunken log2 fold change on Escherichia coli TOP10 for this entry: RRIRRRPPRLPRPRPRPYKIPRP
-0.158

Report shrunken log2 fold change on Escherichia coli TOP10 for this entry: RRIRDRPPRLPRPRPRPLEDPRP
-0.00783

Report shrunken log2 fold change on Escherichia coli TOP10 for this entry: RRIRFRPPRLPRPRPRPNWIPRP
-0.426

Report shrunken log2 fold change on Escherichia coli TOP10 for this entry: RRIRARPPRLPRPRPRPMPSPRP
0.341

Report shrunken log2 fold change on Escherichia coli TOP10 for this entry: RRIRNRPPRLPRPRPRPTNAPRP
-0.182

Report shrunken log2 fold change on Escherichia coli TOP10 for this entry: RRIRIRPPRLPRPRPRPNPRPRP
-0.225

Report shrunken log2 fold change on Escherichia coli TOP10 for this entry: RRIRLRPPRLPRPRPRPMYKPRP
-0.44

Report shrunken log2 fold change on Escherichia coli TOP10 for this entry: RRIRWRPPRLPRPRPRPNLQPRP
0.0402

Report shrunken log2 fold change on Escherichia coli TOP10 for this entry: RRIRSRPPRLPRPRPRPPKAPRP
-0.259

Report shrunken log2 fold change on Escherichia coli TOP10 for this entry: RRIRERPPRLPRPRPRPGVVPRP
-0.0414

Report shrunken log2 fold change on Escherichia coli TOP10 for this entry: RRIRARPPRLPRPRPRPIRVPRP
0.125

Report shrunken log2 fold change on Escherichia coli TOP10 for this entry: RRIRNRPPRLPRPRPRPTEMPRP
-0.283

Report shrunken log2 fold change on Escherichia coli TOP10 for this entry: RRIRVRPPRLPRPRPRPQCKPRP
-0.129

Report shrunken log2 fold change on Escherichia coli TOP10 for this entry: RRIRFRPPRLPRPRPRPSMFPRP
-0.505

Report shrunken log2 fold change on Escherichia coli TOP10 for this entry: RRIRARPPRLPRPRPRPHKYPRP
-0.243

Report shrunken log2 fold change on Escherichia coli TOP10 for this entry: RRIRMRPPRLPRPRPRPPLQPRP
0.661

Report shrunken log2 fold change on Escherichia coli TOP10 for this entry: RRIRLRPPRLPRPRPRPHTIPRP
-0.165

Report shrunken log2 fold change on Escherichia coli TOP10 for this entry: RRIRMRPPRLPRPRPRPEYDPRP
2.81

Report shrunken log2 fold change on Escherichia coli TOP10 for this entry: RRIRFRPPRLPRPRPRPPTWPRP
0.239

Report shrunken log2 fold change on Escherichia coli TOP10 for this entry: RRIRRRPPRLPRPRPRPQWLPRP
0.431

Report shrunken log2 fold change on Escherichia coli TOP10 for this entry: RRIRCRPPRLPRPRPRPLYIPRP
-0.882

Report shrunken log2 fold change on Escherichia coli TOP10 for this entry: RRIRTRPPRLPRPRPRPWHIPRP
-0.115

Report shrunken log2 fold change on Escherichia coli TOP10 for this entry: RRIRKRPPRLPRPRPRPTYPPRP
-0.00526

Report shrunken log2 fold change on Escherichia coli TOP10 for this entry: RRIRPRPPRLPRPRPRPFTNPRP
-0.286

Report shrunken log2 fold change on Escherichia coli TOP10 for this entry: RRIRFRPPRLPRPRPRPWIIPRP
-0.00565

Report shrunken log2 fold change on Escherichia coli TOP10 for this entry: RRIRTRPPRLPRPRPRPLYLPRP
-0.558

Report shrunken log2 fold change on Escherichia coli TOP10 for this entry: RRIRDRPPRLPRPRPRPRIAPRP
0.114

Report shrunken log2 fold change on Escherichia coli TOP10 for this entry: RRIRQRPPRLPRPRPRPFIVPRP
-0.136

Report shrunken log2 fold change on Escherichia coli TOP10 for this entry: RRIRRRPPRLPRPRPRPLTLPRP
-0.142

Report shrunken log2 fold change on Escherichia coli TOP10 for this entry: RRIRPRPPRLPRPRPRPWQYPRP
0.0173

Report shrunken log2 fold change on Escherichia coli TOP10 for this entry: RRIRARPPRLPRPRPRPPQKPRP
1.29

Report shrunken log2 fold change on Escherichia coli TOP10 for this entry: RRIRLRPPRLPRPRPRPKFHPRP
-0.174

Report shrunken log2 fold change on Escherichia coli TOP10 for this entry: RRIRKRPPRLPRPRPRPDNFPRP
-0.0455

Report shrunken log2 fold change on Escherichia coli TOP10 for this entry: RRIRPRPPRLPRPRPRPNHNPRP
-0.755

Report shrunken log2 fold change on Escherichia coli TOP10 for this entry: RRIRKRPPRLPRPRPRPNTLPRP
-0.0816

Report shrunken log2 fold change on Escherichia coli TOP10 for this entry: RRIRWRPPRLPRPRPRPFTQPRP
-0.0585

Report shrunken log2 fold change on Escherichia coli TOP10 for this entry: RRIRIRPPRLPRPRPRPWKTPRP
-0.197

Report shrunken log2 fold change on Escherichia coli TOP10 for this entry: RRIRARPPRLPRPRPRPPVLPRP
0.214

Report shrunken log2 fold change on Escherichia coli TOP10 for this entry: RRIRNRPPRLPRPRPRPLEFPRP
-0.109

Report shrunken log2 fold change on Escherichia coli TOP10 for this entry: RRIRTRPPRLPRPRPRPIPWPRP
-0.0529

Report shrunken log2 fold change on Escherichia coli TOP10 for this entry: RRIRMRPPRLPRPRPRPHMTPRP
0.342

Report shrunken log2 fold change on Escherichia coli TOP10 for this entry: RRIRYRPPRLPRPRPRPTACPRP
-0.13

Report shrunken log2 fold change on Escherichia coli TOP10 for this entry: RRIRKRPPRLPRPRPRPVDCPRP
-0.248

Report shrunken log2 fold change on Escherichia coli TOP10 for this entry: RRIRLRPPRLPRPRPRPIEHPRP
-0.31

Report shrunken log2 fold change on Escherichia coli TOP10 for this entry: RRIRCRPPRLPRPRPRPPAAPRP
1.78

Report shrunken log2 fold change on Escherichia coli TOP10 for this entry: RRIRHRPPRLPRPRPRPKWLPRP
0.333

Report shrunken log2 fold change on Escherichia coli TOP10 for this entry: RRIRRRPPRLPRPRPRPDRHPRP
-0.0411
